Assay: blockers of an Epstein-Barr virus protein-peptide interaction – biochemical, fluorescence polarization, dose response (AID 1419)
Conditions: cell-free protein-peptide binding, 2 h
Active and inactive are the calls of the source. The rule behind the calls is not given here.
Write down one outcome, taken from yes (1) for active, no (0) for inactive

Known results for compounds:
Compound	Category
CCOc1ccc(-c2csc(NC(=O)CSC3=NC(=O)CN3C(C)=O)n2)c2ccccc12	no (0)
Oc1oc(-c2ccccc2)nc1C=Nc1cccc2ccccc12	yes (1)
CCCCn1c(=O)[nH]c2nc3cc(N)ccc3nc2c1=O	yes (1)
O=C1NC(=O)N(Cc2ccco2)C(=O)/C1=C/c1ccc(-c2cccc([N+](=O)[O-])c2)o1	yes (1)

Q: Test call for this compound, please: COc1ccc(C2C(C(C)=O)=C(C)N=c3s/c(=C\c4cc(C)n(C)c4C)c(=O)n32)c(OC)c1 (configuration not stated)
Ans: yes (1)

Q: Test call for this compound, please: `Cc1ccc(C)c2nc3sc(C(=O)N4CCCc5ccccc54)c(N)c3cc12`
Ans: yes (1)

Q: Test call for this compound, please: `Fc1ccccc1/C=N/Nc1ncnc2nc[nH]c12`
Ans: no (0)

* * *

Assay: blockers of an Epstein-Barr virus protein-peptide interaction – biochemical, fluorescence polarization, dose response (AID 1419)
Settings: cell-free protein-peptide binding, 2 h
Calls of active or inactive are those of the source. How the calls were made is not given here.
Write down one outcome, taken from active, inactive

Known results for molecules:
Molecule	Category
C=CCc1cccc2cc(C(=O)Nc3ccc(S(=O)(=O)Nc4nnc(CC)s4)cc3)c(=O)oc12	inactive
O=C(O)/C=C/c1cn(-c2ccccc2)nc1-c1ccc(-c2ccc([N+](=O)[O-])cc2)o1	active
CCc1cccc2cc3c(N)c(C(=O)Nc4ccc(S(=O)(=O)N5CCCC5)cc4)sc3nc12	active
Cc1ccc(C)c(S(=O)(=O)C(C#N)c2nc3ccccc3nc2N2CCCC2)c1 (stereo not given)	active

Q: Test call for this molecule, please: Cc1ccc(N2C(=O)C3C(C(=O)c4ccccc4)=NN(c4ccccc4)C3C2=O)cc1 (stereo not given)
Ans: active

* * *

Assay: blockers of an Epstein-Barr virus protein-peptide interaction – biochemical, fluorescence polarization, dose response (AID 1419)
Details: cell-free protein-peptide binding, 2 h
The source made the active and inactive calls. The rule behind the calls is not given here.
Write down one outcome, taken from True = active, False = inactive

Known results for molecules:
Molecule	Category
COc1cccc(CN2C(=O)c3cccc(N)c3C2=O)c1	True
OCCCc1nc2n(n1)C(c1cccs1)C=C(c1ccccc1)N2 (stereo unspecified)	True
Fc1ccc(/C=N/NC2=Nc3cccc4cccc2c34)cc1	True
Cc1ccc[n+](-c2[nH]c(=O)sc2/C=N/NC(=O)c2ccccc2[O-])c1	False
CCOc1ccc(-c2c(C#N)c(N)nc3sc(C(=O)c4ccccc4)c(N)c23)cc1	False
CC(C)COc1ccc(C(=O)NC(CC(C)C)C(=O)O)cc1 (stereo unspecified)	False

Q: Test call for this molecule, please: `N=C1/C(=C/c2ccc(-c3cccc(C(=O)O)c3)o2)C(=O)N=C2SC=C(c3ccccc3)N12`
Ans: True

Q: Test call for this molecule, please: `Cc1c2ccccc2nc2c(F)c(NCCO)c(F)c(F)c12`
Ans: True

Q: Test call for this molecule, please: `CCOC(=O)CC(=O)CSc1nc(-c2cccnc2)ccc1C#N`
Ans: False

Q: Test call for this molecule, please: O=C1NC(=O)[C@@H]2C3c4ccccc4C=CN3[C@H](C(=O)c3cccs3)[C@H]12 (stereo partly specified)
Ans: True

Q: Test call for this molecule, please: COc1ccc(C2C(C(=O)c3cccs3)=C(O)C(=O)N2c2nnc(C)s2)cc1OC (stereo unspecified)
Ans: True

* * *

Test: blockers of an Epstein-Barr virus protein-peptide interaction – biochemical, fluorescence polarization, dose response (AID 1419)
Details: cell-free protein-peptide binding, 2 h
Calls of active or inactive are those of the source. No rule for the calls is given here.
Write down one outcome, taken from Y (active), N (inactive)

Known results for compounds:
Cc1[nH]c(=O)[nH]c(=O)c1CSCC(=O)OCC(=O)Nc1ccccn1 N
CCC1=NN2C(=N)/C(=C\c3cccn3-c3ccc(Br)cc3)C(=O)N=C2S1 N
OCCNc1nc(Nc2ccc(Br)cc2)nc2ccccc12 N
O=C(O)COc1ccc(-c2nccc(-c3cccs3)n2)cc1 N

Q: Test call for this compound, please: `COc1ccc2nc(N3CCCCC3)c(C#N)cc2c1`
Ans: Y

Q: Test call for this compound, please: `CCCCNc1c2c3c(cccc3n(C)c1=O)C(=O)c1ccccc1-2`
Ans: Y

Q: Test call for this compound, please: `CCCNC(=O)Cn1c(=O)/c(=C\c2ccc(-c3cccc([N+](=O)[O-])c3)o2)s/c1=C\C(=O)C(C)(C)C`
Ans: Y

Q: Test call for this compound, please: `CN1C(=O)/C(=C\N2CCc3ccccc32)C(=O)NC1=S`
Ans: N

Q: Test call for this compound, please: `COc1ccc(NC(=O)N(CCc2ccccc2)Cc2cc3c(C)cc(C)cc3[nH]c2=O)cc1`
Ans: N

Q: Test call for this compound, please: `COc1ccc(NC(=O)NC(=O)c2cc(OCC(F)(F)F)ccc2OCC(F)(F)F)cc1`
Ans: N

* * *

Assay: blockers of an Epstein-Barr virus protein-peptide interaction – biochemical, fluorescence polarization, dose response (AID 1419)
Settings: cell-free protein-peptide binding, 2 h
Calls of active or inactive are those of the source. The rule behind the calls is not given here.
Write down one outcome, taken from yes for active, no for inactive

Known results for compounds:
Compound	Category
CN1C(=O)N(C)c2ccc(C=O)c3cccc1c23	yes
COc1ccc(CCNc2nc(-c3cccnc3)cs2)cc1OC	no
COc1ccc(Cn2c3ccc(OC)cc3c3nc4ccccc4nc32)cc1	yes

Now look at this one.
Q: Test call for this compound, please: `COC(=O)c1ccc2c(c1)SC1=C(CCCC1=O)N2`
Ans: yes

* * *

Assay: blockers of an Epstein-Barr virus protein-peptide interaction – biochemical, fluorescence polarization, dose response (AID 1419)
Conditions: cell-free protein-peptide binding, 2 h
Calls of active or inactive are those of the source. How the calls were made is not given here.
Write down one outcome, taken from active, inactive

Known results for compounds:
Compound	Category
O=C1/C(=C/c2ccco2)SC(=S)N1c1cccnc1	inactive
C/C=C/C=C/[C@H]1Cc2cc(O)cc(O)c2O1	active

Q: Test call for this compound, please: `CCc1ccc[n+](-c2[nH]c(=O)sc2/C=N/NC([S-])=Nc2ccccc2)c1`
Ans: active

Q: Test call for this compound, please: `Cc1cc(=O)oc2c3c4c(cc12)OCCN4CCC3`
Ans: active

Q: Test call for this compound, please: `Cc1cc([N+](=O)[O-])ccc1-c1ccc(/C=N/NC(=O)Cc2ccccc2)o1`
Ans: active

Q: Test call for this compound, please: `CSC1=NSC2=NC(=O)/C(=C/c3coc4ccccc4c3=O)C(=N)N12`
Ans: active

Q: Test call for this compound, please: `Cc1nc(NC(=O)c2ccccc2)sc1-c1csc(Nc2ccc(C(=O)O)cc2)n1`
Ans: active

Q: Test call for this compound, please: `COc1ccc(/C=C2\SC(=S)N(CCCC(=O)Nc3ccccn3)C2=O)cc1OC`
Ans: active

Q: Test call for this compound, please: `O=c1nc2s/c(=C\c3ccc(-c4ccccc4[N+](=O)[O-])o3)c(=O)n2nc1-c1ccccc1`
Ans: active

Q: Test call for this compound, please: `O=[N+]([O-])c1ccc(Sc2cccc3cccnc23)c2cccnc12`
Ans: active

Q: Test call for this compound, please: `COc1ccc(-c2onc3ccc(Br)cc23)cc1`
Ans: active

Q: Test call for this compound, please: `COc1ccc(Cl)cc1CN1CCN(c2nc(C)cc(C)c2C#N)CC1`
Ans: active

Q: Test call for this compound, please: `O=C(Nc1cccc(S(=O)(=O)NC2=NCCC2)c1)c1cc(-c2ccco2)nc2ccccc12`
Ans: active

* * *

Experiment: blockers of an Epstein-Barr virus protein-peptide interaction – biochemical, fluorescence polarization, dose response (AID 1419)
Conditions: cell-free protein-peptide binding, 2 h
The source made the active and inactive calls. No rule for the calls is given here.
Write down one outcome, taken from T = active, F = inactive

Known results for molecules:
Molecule	Category
COc1ccc(C(=O)c2sc3nc(C)cc(-c4cccs4)c3c2N)cc1OC	T
Cn1cc(/C=C2\SC(=S)N(NC(=O)c3ccccc3)C2=O)c2ccccc21	F

Q: Test call for this molecule, please: `CCn1c(CSc2nccn2C)nc2cc(C(=O)O)ccc21`
Ans: T

Q: Test call for this molecule, please: `CCCCN1C(=O)/C(=C/C=C2\Oc3ccccc3N2CC)SC1=S`
Ans: T

Q: Test call for this molecule, please: `O=C(O)c1ccccc1C1=Nc2ccc(O)cc2Oc2cc(O)ccc21`
Ans: T

* * *

Can you tell me IC50 for the items I'm about to list?
Assay: blockers of an Epstein-Barr virus protein-peptide interaction – biochemical, fluorescence polarization, dose response (AID 1419)
Settings: cell-free protein-peptide binding, 2 h
Active and inactive are the calls of the source. How the calls were made is not given here.

Field: example entries. Status: answers known.
Molecule	IC50
O=C(CSc1nc(-c2ccccc2)nc2c1Cc1ccccc1O2)Nc1ccc(C(=O)O)cc1	1.64 µM
CN(CCC#N)C(=O)COC(=O)c1c2c(nc3ccccc13)/C(=C/c1ccco1)CC2	3.18 µM
CC(C)(CCl)C(=O)Nc1ccc(OC(F)(F)F)cc1	> 54 µM (inactive)
COc1cc(C2CC(C(F)(F)F)n3ncc(C(=O)O)c3N2)cc(OC)c1OC (stereo unspecified)	> 54 µM (inactive)
Cc1cccn2c(=O)c(/C=C3\SC(=S)N(CC(C)C)C3=O)c(NCCCOC(C)C)nc12	> 54 µM (inactive)
Cc1ccc(C(=O)NN2C(=O)/C(=C/c3cn(C)c4ccccc34)SC2=S)cc1	3.42 µM
Cc1cc(-c2ccccc2)c(C#N)c(=S)[nH]1	> 54 µM (inactive)
CCOc1cc(/C=C(\C#N)c2nc(-c3cccs3)c(NC(C)=O)s2)ccc1O	3.62 µM
Cn1nc([N+](=O)[O-])c(C(C#N)c2nc3ccccc3n2C)c(Cl)c1=O (stereo unspecified)	2.39 µM
O=S(=O)(Nc1nc2ccccc2nc1N1CCN(c2ccccn2)CC1)c1ccc(Cl)cc1	> 54 µM (inactive)

Please look at the items below and tell me IC50 for each one, in order.
1. Cc1cc[n+](-c2[nH]c(=O)sc2/C=N/N=C(\[O-])c2ccccc2)cc1C
2. O=S(=O)([N-]c1nc2ccccc2nc1-[n+]1ccc(-c2ccncc2)cc1)c1ccccc1
3. CCN(CC)c1ccc(/C=C(/C#N)c2nc3ccccc3[nH]2)c(OC(C)C)c1

Ans:
< 0.42 µM
9.13 µM
10.7 µM

Please look at the items below and tell me IC50 for each one, in order.
1. N=c1oc2cc(O)ccc2cc1C(=O)Nc1ccccn1
2. CC(=O)N1CCCc2cc(S(=O)(=O)N(CC(C)C)CC(C)C)ccc21

Ans:
1. 6.67 µM
2. > 54 µM (inactive)

Please look at the items below and tell me IC50 for each one, in order.
1. CCOC(=O)Cc1csc(SCC(=O)Nc2sc3c(c2C(N)=O)CCC3)n1
2. Brc1ccc(C2=CC(c3ccco3)n3ncnc3N2)cc1 (stereo unspecified)
3. CC(=O)NC1C(OCCOc2ccc(Cl)cc2Cl)OC(COC(C)=O)C(OC(C)=O)C1OC(C)=O (stereo unspecified)
4. CN(C)c1ccc2c3c(cccc13)C(=O)N(c1ccccc1)C2=O
5. Nc1ccc2nc3c(=O)n(C4CCCCC4)c(=O)[nH]c3nc2c1
6. O=C(Nc1ccccc1F)C(=Cc1sc(N2CCOCC2)nc1-c1ccccc1)C(=O)Nc1ccccc1F

Ans:
> 54 µM (inactive)
1.09 µM
> 54 µM (inactive)
4.05 µM
< 0.42 µM
5.71 µM

Origin of measurements: PubChem BioAssay AID1419
